Assay: Noncompartmental pharmacokinetic parameters (Cmax, Tmax, AUC, Racc) in QD and BID cohorts of Form B
Assay type: in vivo, human
Details: human, plasma, oral, 400 mg, Compound III; 400 mg QD of Form B; Cohort 3; Day 1; read-out: AUClast (Median)
readoutLabel: AUC(0-t) (ng·h/mL)
The figure you give is taken to be in ng·h/mL; do not add the unit.

Qu. AUC(0-t) for "O=C1NCC2(CCCCC2)n2c1cc1cnc(Nc3ccc(N4CCNCC4)cn3)nc12" ?
Ans. 29.2

----------
Assay: Noncompartmental pharmacokinetic parameters (Cmax, Tmax, AUC, Racc) in QD and BID cohorts of Form B
Format: in vivo, human
Conditions: human, plasma, oral, 200 mg, Compound III; 200 mg QD of Form B; Cohort 1; Day 29; read-out: Cmax (Median)
readoutLabel: Cmax (ng/mL)
The figure you give is taken to be in ng/mL; do not add the unit.

Qu. Cmax for O=C1NCC2(CCCCC2)n2c1cc1cnc(Nc3ccc(N4CCNCC4)cn3)nc12 [Compound III] ?
Ans. 2.52

----------
Test: Plasma concentration versus time of Compound I and metabolite Compound III in patients dosed QD or BID with Form B of Compound II plus fulvestrant
Format: in vivo, human
Details: human, plasma, oral, 500 mg, 500 mg QD of Form B, Day 1, 1.0 h, Mean; read-out: Compound I Concentration
readoutLabel: concentration at 1 h (ng/mL)
The figure you give is taken to be in ng/mL; do not add the unit.

Qu. concentration at 1 h for "CC(C)N1CCN(c2ccc(Nc3ncc4cc5n(c4n3)C3(CCCCC3)CNC5=O)nc2)CC1" ?
Ans. 10.4

----------
Assay: Plasma concentration versus time of Compound I and metabolite Compound III in patients dosed QD or BID with Form B of Compound II plus fulvestrant
Format: in vivo, human
Settings: human, plasma, oral, 300 mg, 300 mg QD of Form B, Day 1, 3.0 h, Median; read-out: Compound I Concentration
Excerpt: Patients were enrolled into 1 of 2 parallel, independently operating, dose-escalation dosing cohorts with Form B of Compound II administered continuously either once daily (QD) or twice daily (BID) with food with fixed-dose fulvestrant (intramuscularly every 14 days for the first three injections and then every 28 days). Pre- or perimenopausal patients also received goserelin for the duration of study treatment. […]
readoutLabel: concentration at 3 h (ng/mL)
The figure you give is taken to be in ng/mL; do not add the unit.

Qu. concentration at 3 h for "CC(C)N1CCN(c2ccc(Nc3ncc4cc5n(c4n3)C3(CCCCC3)CNC5=O)nc2)CC1" ?
Ans. 13.4

----------
Test: Plasma concentration versus time of Compound I and metabolite Compound III in patients dosed QD or BID with Form B of Compound II plus fulvestrant
Type: in vivo, human
Conditions: human, plasma, oral, 200 mg, 200 mg QD of Form B, Day 29, 6.0 h, Median; read-out: Compound I Concentration
readoutLabel: concentration at 6 h (ng/mL)
The figure you give is taken to be in ng/mL; do not add the unit.

Qu. concentration at 6 h for CC(C)N1CCN(c2ccc(Nc3ncc4cc5n(c4n3)C3(CCCCC3)CNC5=O)nc2)CC1 [Compound I] ?
Ans. 17.9

----------
Assay: Noncompartmental pharmacokinetic parameters (Cmax, Tmax, AUC, Racc) in QD and BID cohorts of Form B
Assay type: in vivo, human
Details: human, plasma, oral, 300 mg, Compound I; 300 mg QD of Form B; Cohort 2; Day 29; read-out: Tmax (Median)
readoutLabel: Tmax (h)
The figure you give is taken to be in h; do not add the unit.

Qu. Tmax for CC(C)N1CCN(c2ccc(Nc3ncc4cc5n(c4n3)C3(CCCCC3)CNC5=O)nc2)CC1 [Compound I] ?
Ans. 4
